System: ARTHIS (Arthraxon hispidus (Thunb.) Makino, creek grass)
PROTOCOL_DESCRIPTION: Weed control test, foliage treatment (Test Example 1, Table 7)
Assay type: in vivo
CONDITION_PARAMETERS: Arthraxon hispidus, foliar, 0.1 kg/ha, read-out: Plant damage (herbicidal activity), visually evaluated, ARTHIS
Attribute: pest or weed control at 100 g/ha
ATTRIBUTE_MEASURED: pest or weed control at 100 g/ha (%)

{"STRUCTURE": "C[C@@H](Oc1ccc(C(F)=C(c2ccc(F)cc2)C(F)(F)F)cc1)C(=O)Nc1ccccc1F", "SYSTEM_NAME": "ARTHIS (Arthraxon hispidus (Thunb.) Makino, creek grass)", "ATTRIBUTE_MEASURED": "pest or weed control at 100 g/ha", "NUMBER": 0}
{"STRUCTURE": "C[C@@H](Oc1ccc(Oc2nc3ccc(Cl)cc3o2)cc1)C(=O)Nc1nc2cc(Cl)ccc2o1", "SYSTEM_NAME": "ARTHIS (Arthraxon hispidus (Thunb.) Makino, creek grass)", "ATTRIBUTE_MEASURED": "pest or weed control at 100 g/ha", "NUMBER": 100}
{"STRUCTURE": "C[C@@H](Oc1ccc(Oc2ccc(C#N)cc2F)cc1)C(=O)Nc1cnccn1", "SYSTEM_NAME": "ARTHIS (Arthraxon hispidus (Thunb.) Makino, creek grass)", "ATTRIBUTE_MEASURED": "pest or weed control at 100 g/ha", "NUMBER": 10}
{"STRUCTURE": "C[C@@H](Oc1ccc(Oc2ccc(C#N)cc2F)cc1)C(=O)Nc1nc2ccc(Cl)cc2s1", "SYSTEM_NAME": "ARTHIS (Arthraxon hispidus (Thunb.) Makino, creek grass)", "ATTRIBUTE_MEASURED": "pest or weed control at 100 g/ha", "NUMBER": 70}

---

# reported Harmful effect, 20 days; entries follow
Test system: rice (Nampyung rice)
PROTOCOL_DESCRIPTION: Foliage treatment with emulsions, dry rice field conditions, harmful effect on rice (Test Example 2, Table 9)
Format: in vivo
CONDITION_PARAMETERS: 6~6.5-leaf stage, 150 g a.i./ha, emulsion, 20 days after foliage treatment

{"COMPOUND": "C[C@@H](Oc1ccc(Oc2nc3ccc(Cl)cc3o2)cc1)C(=O)Nc1nc2cc(Cl)ccc2o1", "Harmful effect, 20 days": "0%"}
{"COMPOUND": "COc1ccc2nc(NC(=O)[C@@H](C)Oc3ccc(Oc4nc5ccc(Cl)cc5o4)cc3)sc2c1", "Harmful effect, 20 days": "10%"}
{"COMPOUND": "C[C@@H](Oc1ccc(Oc2nc3ccc(Cl)cc3o2)cc1)C(=O)Nc1nc2ccccc2s1", "Harmful effect, 20 days": "0%"}
{"COMPOUND": "CCOC(=O)[C@@H](C)Oc1ccc(Oc2nc3ccc(Cl)cc3o2)cc1 [Phenoxaprop-P-ethyl, phenoxaprop-P-ethyl, reference compound]", "Harmful effect, 20 days": "23%"}

---

Test system: SETVIR (Setaria viridis (L.) Beauv, green foxtail)
PROTOCOL_DESCRIPTION: Weed control test, foliage treatment (Test Example 1, Table 7)
Assay type: in vivo
CONDITION_PARAMETERS: Setaria viridis, foliar, 0.025 kg/ha, read-out: Plant damage (herbicidal activity), visually evaluated, SETVIR

{"STRUCTURE": "Cc1cc(NC(=O)[C@@H](C)Oc2ccc(Oc3ccc(C#N)cc3F)cc2)n(C)n1", "DISPLAY_UNIT": "%", "pest or weed control at 25 g/ha": 0}
{"STRUCTURE": "C[C@@H](Oc1ccc(OC(F)=Cc2ccc(F)cc2)cc1)C(=O)Nc1nc2cc(Cl)ccc2o1", "DISPLAY_UNIT": "%", "pest or weed control at 25 g/ha": 0}
{"STRUCTURE": "C[C@@H](Oc1ccc(Oc2nc3ccc(Cl)cc3o2)cc1)C(=O)N(C)c1nc2ccccc2s1", "DISPLAY_UNIT": "%", "pest or weed control at 25 g/ha": 0}
{"STRUCTURE": "Cc1ccc2nc(N(C)C(=O)[C@@H](C)Oc3ccc(Oc4ccc(C#N)cc4F)cc3)sc2c1", "DISPLAY_UNIT": "%", "pest or weed control at 25 g/ha": 0}
{"STRUCTURE": "C[C@@H](Oc1ccc(C(F)=C(c2ccccc2)C(F)(F)F)cc1)C(=O)Nc1ccccc1F", "DISPLAY_UNIT": "%", "pest or weed control at 25 g/ha": 0}
{"STRUCTURE": "C[C@@H](Oc1ccc(Oc2ccc(C#N)cc2F)cc1)C(=O)Nc1nccs1", "DISPLAY_UNIT": "%", "pest or weed control at 25 g/ha": 0}
{"STRUCTURE": "C[C@@H](Oc1ccc(Oc2nc3ccc(Cl)cc3o2)cc1)C(=O)Nc1nc2ccccc2s1", "DISPLAY_UNIT": "%", "pest or weed control at 25 g/ha": 80}
{"STRUCTURE": "COc1ccc2nc(NC(=O)[C@@H](C)Oc3ccc(Oc4nc5ccc(Cl)cc5o4)cc3)sc2c1", "DISPLAY_UNIT": "%", "pest or weed control at 25 g/ha": 50}
{"STRUCTURE": "C[C@@H](Oc1ccc(C(F)=C(c2ccccc2)C(F)(F)F)cc1)C(=O)Nc1nc2cc(Cl)ccc2o1", "DISPLAY_UNIT": "%", "pest or weed control at 25 g/ha": 0}
{"STRUCTURE": "C[C@@H](Oc1ccc(Oc2ccc(C#N)cc2F)cc1)C(=O)Nc1cnccn1", "DISPLAY_UNIT": "%", "pest or weed control at 25 g/ha": 0}
{"STRUCTURE": "C[C@@H](Oc1ccc(C(F)=C(c2ccc(F)cc2)C(F)(F)F)cc1)C(=O)Nc1ccccc1F", "DISPLAY_UNIT": "%", "pest or weed control at 25 g/ha": 0}
{"STRUCTURE": "C[C@@H](Oc1ccc(OC(F)=Cc2ccccc2)cc1)C(=O)N(C)c1ccccc1F", "DISPLAY_UNIT": "%", "pest or weed control at 25 g/ha": 0}
{"STRUCTURE": "C[C@@H](Oc1ccc(OC(F)=Cc2ccc(Cl)cc2)cc1)C(=O)Nc1nc2cc(Cl)ccc2o1", "DISPLAY_UNIT": "%", "pest or weed control at 25 g/ha": 0}
{"STRUCTURE": "COc1ccc2nc(N(C)C(=O)[C@@H](C)Oc3ccc(Oc4nc5ccc(Cl)cc5o4)cc3)sc2c1", "DISPLAY_UNIT": "%", "pest or weed control at 25 g/ha": 0}
{"STRUCTURE": "Cc1ccc(C=C(F)Oc2ccc(O[C@H](C)C(=O)Nc3ccccc3F)cc2)cc1", "DISPLAY_UNIT": "%", "pest or weed control at 25 g/ha": 0}
{"STRUCTURE": "C[C@@H](Oc1ccc(Oc2ccc(C#N)cc2F)cc1)C(=O)Nc1nc2ccc(F)cc2s1", "DISPLAY_UNIT": "%", "pest or weed control at 25 g/ha": 0}
{"STRUCTURE": "C[C@@H](Oc1ccc(Oc2ccc(C#N)cc2F)cc1)C(=O)Nc1nc2ccc(Cl)cc2s1", "DISPLAY_UNIT": "%", "pest or weed control at 25 g/ha": 0}
{"STRUCTURE": "C[C@@H](Oc1ccc(Oc2nc3ccc(Cl)cc3o2)cc1)C(=O)Nc1nc2cc(Cl)ccc2o1", "DISPLAY_UNIT": "%", "pest or weed control at 25 g/ha": 70}
{"STRUCTURE": "COc1ccc2nc(NC(=O)[C@@H](C)Oc3ccc(Oc4ccc(C#N)cc4F)cc3)sc2c1", "DISPLAY_UNIT": "%", "pest or weed control at 25 g/ha": 0}
{"STRUCTURE": "C[C@@H](Oc1ccc(Oc2ccc(C#N)cc2F)cc1)C(=O)Nc1nc2ccccc2s1", "DISPLAY_UNIT": "%", "pest or weed control at 25 g/ha": 0}
